The reported measurements were obtained from the supplement of paper PMC9732359.

# Assay Overview: protein stability index of a GFP-peptide fusion (yeast GPS) (PSI 1-4); higher = more stable; sorted into four equal gates, so the index is relative within each strain
# Condition Set: pdr5∆
Record form. Attribute: protein stability index. Fill in for each entry.
Give bare numbers.

Consider the following illustrative entries.
1) APKGSTDPKELYNNAHV [RPC40] : 2.96
2) TCPGLSLTDVAFFTYDA [ECM29] : 3.05
3) SDLNLTDRQKKLLGVDM [YLR018C/POM34] : 3.09

# evaluate next
(Q) Sample QKQLPQKTRVKLLFDHD [ESC2] — what was its protein stability index?
(A) 2.93

* * *

# Assay Overview: protein stability index of a GFP-peptide fusion (yeast GPS) (PSI 1-4); higher = more stable; sorted into four equal gates, so the index is relative within each strain
# Condition Set: pdr5∆
Assay Metric: protein stability index

Some solved cases for reference:
1) PFGAKSTKSNKTRNPLT [RPL8A] : 2.99
2) GVIDDSFDVAISTACPR [SMC4] : 3.09
3) HLPCTIEAEEAEEIGVE [RPN8] : 1.74

Below are 4 sequences. Give each one its protein stability index.
1. LSHYAKIRPWRTFRLNE [RPO31]
2. KGRAYKRLLYTRRFVNV [RPS30A]
3. LKRMEILKSPHLSKSPA [SIR4]
4. KLRGDLREAPADYWTHA [SNF6]

(A)
2.4
2.12
2.93
3

Batch of 6 sequences: report protein stability index for each.
1. FDDRGDVKVIMATNKIE [RPT2]
2. KYLYLRAVGGEVGASAA [RPL12A]
3. PVSCIIQNDEEYDTPAL [PRP8]
4. VRPFGVSTLIAGFDPRD [PRE6]
5. PQEETITFLIEKAKEMI [ECM29]
6. MSAPEAQQQKRGGFGGR [RPS2]

(A)
3.18
1.99
2.73
1.7
3.18
3.25

List protein stability index for every entry below, keeping the order given.
1. YLKHNSIAEEIPIAIVL [RET1]
2. DDQLKQRRQNIRDLEKL [RPT4]
3. RETNDDIWRVAGKFELL [SNF2]
4. KSSIEKDPSPEILVLYN [SIN4]
5. GYTQHGGLRPFGVSFIY [PRE9]
6. MASTAVMMDVDSSGVND [RPN3]

(A)
1: 2.18; 2: 3.11; 3: 2.26; 4: 2.9; 5: 2.03; 6: 3.51

* * *

Assign protein stability index to each entry below.
# Assay Overview: protein stability index of a GFP-peptide fusion (yeast GPS) (PSI 1-4); higher = more stable; sorted into four equal gates, so the index is relative within each strain
# Condition Set: ubr1∆
Give bare numbers.

I'm hoping you can list protein stability index for every sequence here, please.
1. KIKQYERLRFYKDTFTL [RRI1]
2. GKGLQSAIDVLDPLTKD [RPN2]
3. EKSDALVGVYRQQQENS [SMC1]
4. KATAAKKAVVKGTNGKK [RPL25]

(A)
2.81
2.81
2.85
1.29

Could I get protein stability index for every one of these entries?
1. KNEKLILEESLNAIILK [SMC3]
2. KSLALLGYNFDGSAIED [SNF5]
3. GIDLAYNMYDAYGNWFN [PRP8]
4. LPLLYNFNPDNGFAPIS [FAS1]
5. PFDQNLDSNNNNSNSNN [SWI1]
6. WTDPNLKSSLADVLSIL [RPN1]
7. TPRDRRKSVFAPLNFNP [SSN2]

(A)
1. 2.65
2. 2.86
3. 3
4. 2.72
5. 2.74
6. 2.65
7. 2.86

Consider the following items and state reported protein stability index for each.
1. DATANATANATANATAN [DSN1]
2. IPPTFDKGAVGPNNFIW [MED4]
3. GFINQKNLKPQEQLKNV [YIL149C/MLP2]
4. DKSLDSSNASFNNQGKL [MED1]
5. QQTAKKLIPKLYRYRFD [ECM29]
6. PGDIVRAQVLSLGDGTN [CSL4]

(A)
[3.12, 3.14, 2.9, 2.99, 1.21, 3.29]

Look up protein stability index for the entries below, preserving their order.
1. EDLFDDYPSTSLDIRHD [NUT1]
2. KMKIQETISKLNEYKRE [SMC2]

(A)
[2.05, 1.93]
